# inhibition in vivo at 30 mg/kg listing for each entry below
System: Mus musculus
test-details: Inhibition of trinitrochlorobenzene-induced contact hypersensitivity in 1 hr before pretreated CD1 mouse assessed as ear swelling at 30 mg/kg, po
Assay type: functional

# molecular-string, quantity-unit, inhibition in vivo at 30 mg/kg
records = [
    ("O=C(Nc1ccc(-n2nc(C(F)(F)F)cc2C(F)(F)F)cc1)c1ccncc1", "%", 25),
    ("Cc1ccc(C(=O)Nc2ccc(-n3nc(C(F)(F)F)cc3C(F)(F)F)cc2)cn1", "%", 46),
    ("Cc1nnsc1C(=O)Nc1ccc(-n2nc(C(F)(F)F)cc2Br)cc1", "%", 8.3),
    ("Cc1nnsc1C(=O)Nc1ccc(-n2nc(C(F)(F)F)cc2C(F)(F)F)cc1", "%", 100),
    ("O=C(Nc1ccc(-n2nc(C(F)(F)F)cc2C(F)(F)F)cc1)c1cncc(F)c1", "%", 44),
    ("Cc1cc(C)c(C(=O)Nc2ccc(-n3nc(C(F)(F)F)cc3C(F)(F)F)cc2)cn1", "%", 64),
    ("Cc1nnsc1C(=O)Nc1ccc(-n2nc(C(F)(F)F)cc2C)cc1", "%", 24),
    ("O=C(Nc1ccc(-n2nc(C(F)(F)F)cc2C(F)(F)F)cc1)c1cncc(Br)c1", "%", 17),
]
